- Tested on: MS2 coat protein
- methodDescription: apparent KD of MS2 coat protein; designed switch direction (-1 OFF switch, 1 ON switch): 1; higher = weaker reporter binding
- statedConditions: input ligand: microRNA oligo, concentration not stated
measuredMetric: apparent KD of MS2 coat protein (nM)
Entry rule: numbers only, all in nM.

GAGCCAGUCCGAGGAUAUUCAUAAAUUAAAUACAUGAGGAUCACCCAUGUAGGCAGAGAGCCUUGGGAGAAGGCGGACUGGCUC [Xeonanisa>>3] (Eterna round: R96, puzzle: Same State NG 2) ... 25.5

Turning now to a further sequence:
// apparent KD of MS2 coat protein (MS2 coat protein) for UUAAUGAUGUAAGGAUAUACAUGAGGAUUUCUCGUAGAAGGUACAAGACAUGAGGAUCACCCAUGUGUCGCUCGAAAGAGCGUA [Mat - Same State NG 1 - JL mod - D20] (Eterna round: R96, puzzle: Same State NG 1) = 113

----------
- Tested on: MS2 coat protein
- methodDescription: apparent KD of MS2 coat protein; designed switch direction (-1 OFF switch, 1 ON switch): 1; higher = weaker reporter binding
- statedConditions: input ligand: FMN 200 uM
# cutoff 70 nM applies to apparent KD of MS2 coat protein; >= gives TRUE, < gives FALSE

Use these answered entries as a reference point.
GCUGCAAGGGCAGGAUAUGGGUUCAGAGCGGAAGUGCGCUUUGAUACAUGAGGAUCACCCAUGUCCCAGAAGGGCCCAUGCGGC [Arredibi] (Eterna round: R96, puzzle: Same State NG 2) ... FALSE
AUCAUUAAUGCAGGAUAUGAUUAACAUGAGGAUCACCCAUGUGGUGUUGUGAGUAAGGAGAGUGAUCAGAAGGGCAUUUUUUUU [JMF's solution 35] (Eterna round: R96, puzzle: Same State NG 2) ... TRUE

Req: Item GCUACCAUUGAAGCCAACAUGAGGAUCACCCAUGUAUGUUGGCAGGAUAUCGAUUGCAAAGCGAUCGAGAAGGGCUAAGGUAGC [Mat - Same State NG 3 - JL Mod - D86] (Eterna round: R96, puzzle: Same State NG 3) with apparent KD of MS2 coat protein of 70 nM or above?
Resp: TRUE

Req: Item GAGUGGUAAAGAGGAUAUGCAUUGUUAUUCACUGUAGAAGGUUUUAACAUGAGGAUCACCCAUGUAGGACUAUUCCUGUGUUUC [Parity 63 - Jieux - Same State NG 1] (Eterna round: R96, puzzle: Same State NG 1) with apparent KD of MS2 coat protein of 70 nM or above?
Resp: FALSE

Req: Item GCGAGCGUACUUGCAGACAUGAGGAUCACCCAUGUAACUGGACAGGAUAUGGUACCGUUUCGGUACCAGAAGGGUUCAUAUGUC [JL SSNG3 3.53] (Eterna round: R96, puzzle: Same State NG 3) with apparent KD of MS2 coat protein of 70 nM or above?
Resp: FALSE

----------
- Tested on: MS2 coat protein
- methodDescription: apparent KD of MS2 coat protein; designed switch direction (-1 OFF switch, 1 ON switch): 1; higher = weaker reporter binding
- statedConditions: input ligand: FMN 200 uM
measuredMetric: apparent KD of MS2 coat protein
Please provide the amount together with its unit, number first.

GGUAGGUUACUACCAAACAUGAGGAUCACCCAUGUAAGUGGGAAGGAUAUGGUACCUUUUAGGUACCAGAAGGUCCAAUUAAUU [JL Fiskers NG3ss - 2 mod 5] (Eterna round: R96, puzzle: Same State NG 3) ... 205 nM

Lab note: measured apparent KD of MS2 coat protein of CGCAGGCACGUAGGAUAUCUAGCGUGGGAGGCUAGAGAAGGAUGGAAUAACAUGAGGAUCACCCAUGUCGCCUCGCGGAAAUAA [Diorverire] (Eterna round: R96, puzzle: Same State NG 1) was 15.5 nM

Recorded values, source the supplement of paper PMC9170038.
